- measurementTarget: His6-AspH315–758 (human aspartate/asparagine-β-hydroxylase, AspH) (Homo sapiens)
- Construct: N-Terminally His6-tagged human AspH315–758 (His6-AspH315–758) was produced in E. coli BL21 (DE3) cells; made in house; host or cells: E. coli BL21 (DE3), pET-28a(+) vector
- Sequence (Q12797 315-758): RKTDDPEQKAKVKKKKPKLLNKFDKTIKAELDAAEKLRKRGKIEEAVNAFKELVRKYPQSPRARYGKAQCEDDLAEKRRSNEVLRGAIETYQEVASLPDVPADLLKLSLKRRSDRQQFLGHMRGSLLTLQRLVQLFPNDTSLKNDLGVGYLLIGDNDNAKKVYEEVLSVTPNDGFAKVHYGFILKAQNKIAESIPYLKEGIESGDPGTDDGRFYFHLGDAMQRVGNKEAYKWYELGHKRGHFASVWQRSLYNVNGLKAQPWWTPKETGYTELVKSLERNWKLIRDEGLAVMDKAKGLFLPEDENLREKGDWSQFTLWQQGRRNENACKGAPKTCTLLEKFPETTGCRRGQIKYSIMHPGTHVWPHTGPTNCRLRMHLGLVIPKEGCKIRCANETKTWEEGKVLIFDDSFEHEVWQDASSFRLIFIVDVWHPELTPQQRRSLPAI
- experimentDescription: SPE-MS AspH inhibition assay (LOPAC screen at fixed 20 μM and IC50 dose-response), hydroxylation of cyclic peptide hFX-CP101–119
- Type: biochemical
Where a name gives a salt, the structure may show the parent alone.
Here, each record is paired with measured Plate 2 (% conversion) data.
Just the number plus its unit, please.

These solved cases illustrate the format of a correct answer.
# compound, Plate 2 (% conversion)
measured = [
    ("C[N+]1(C)CCN(c2ccccc2)CC1.[I-]", "36.09%"),
    ("CCCN(CCC)CCc1ccc(O)c(O)c1 [Dipropyldopamine hydrobromide]", "10.27%"),
    ("COc1cc(CC(=O)O)ccc1O [4-Hydroxy-3-methoxyphenylacetic acid]", "38.57%"),
]

// Plate 2 (% conversion) lookup, compound = NC(N)=Nc1ccc2[nH]c3c(c2c1)C[C@@]1(O)[C@H]2Cc4ccc(O)c5c4[C@@]1(CCN2CC1CC1)[C@H]3O5.O=C(O)C(F)(F)F.O=C(O)C(F)(F)F [GNTI, reference compound] , result: 1.92%

// Plate 2 (% conversion) lookup, compound = CN1CC[C@@]2(C)c3cc(OC(=O)Nc4ccccc4)ccc3N(C)[C@@H]12 , result: 38.49%

* * *

- measurementTarget: His6-AspH315–758 (human aspartate/asparagine-β-hydroxylase, AspH) (Homo sapiens)
- Construct: N-Terminally His6-tagged human AspH315–758 (His6-AspH315–758) was produced in E. coli BL21 (DE3) cells; made in house; host or cells: E. coli BL21 (DE3), pET-28a(+) vector
- experimentDescription: SPE-MS AspH inhibition assay (LOPAC screen at fixed 20 μM and IC50 dose-response), hydroxylation of cyclic peptide hFX-CP101–119
- Type: biochemical
- setupConditions: LOPAC Plate 4, compound at 20 uM, substrate conversion
Structures can show the parent of a compound that is named as a salt.
Classification field: enter Satisfied for % conversion values not below 30%, Not satisfied for values below it.

# example entries with known answers
# molecule, measurementTarget, qualitativeLabel
rows = [
    ("CCN(CC)CCNC(=O)c1cc(S(C)(=O)=O)ccc1OC [Tiapride hydrochloride]", "His6-AspH315–758 (human aspartate/asparagine-β-hydroxylase, AspH) (Homo sapiens)", "Satisfied"),
    ("CC1CCN(CC[C@H]2CCCN2S(=O)(=O)c2cccc(O)c2)CC1.Cl [SB 269970 hydrochloride]", "His6-AspH315–758 (human aspartate/asparagine-β-hydroxylase, AspH) (Homo sapiens)", "Satisfied"),
    ("O=C(c1cc(O)c(O)c([N+](=O)[O-])c1)c1ccccc1F [Ro 41-0960, reference compound]", "His6-AspH315–758 (human aspartate/asparagine-β-hydroxylase, AspH) (Homo sapiens)", "Not satisfied"),
]

// inclusive: % conversion at least 30%? input: CCC1(c2ccccc2)C(=O)NCNC1=O
Satisfied

// inclusive: % conversion at least 30%? input: CCN(CC)CCOC(=O)c1ccc(N)cc1 [Procaine hydrochloride]
Satisfied
